# run.description: photoluminescence quantum yield (fraction); solvent given as SMILES
# reported.conditions: in Cc1ccccc1
measured.parameter: photoluminescence quantum yield
I only need the number, thanks.

{"molecule": "CCCCCCCCC1(CCCCCCCC)c2ccccc2-c2ccc(-c3nnc(-c4cccc(-n5c6ccc(C(C)(C)C)cc6c6cc(C(C)(C)C)ccc65)c4)o3)cc21", "measurement": 0.13}

stdin: Identify measured photoluminescence quantum yield corresponding to F[B-]1(F)n2cccc2C(c2ccccc2)=C2C=CC=[N+]21
stdout: 0.053

stdin: Identify measured photoluminescence quantum yield corresponding to COC(=O)c1ccc(C#Cc2ccc(N(C)C)cc2)cc1
stdout: 0.324

stdin: Identify measured photoluminescence quantum yield corresponding to Cc1cc(-c2ccc(-n3c4ccccc4c4ccccc43)cc2)nc(-c2ccc(-n3c4ccccc4c4ccccc43)cc2)n1
stdout: 0.64

stdin: Identify measured photoluminescence quantum yield corresponding to Fc1ccc(-c2cc3ccc4cc(-c5ccc(F)cc5)cc5ccc(c2)c3c45)cc1
stdout: 0.07

stdin: Identify measured photoluminescence quantum yield corresponding to CCCCCCc1ccc2c3c(ccc2c1)O[B-](F)(F)[N+](c1cc([N+]2=Cc4c(ccc5cc(CCCCCC)ccc45)O[B-]2(F)F)cc([N+]2=Cc4c(ccc5cc(CCCCCC)ccc45)O[B-]2(F)F)c1)=C3
stdout: 0.48

stdin: Identify measured photoluminescence quantum yield corresponding to CCCCOC(=O)c1cc(Cl)c2c3c(Cl)cc4c5c(cc(Cl)c(c6c(Cl)cc(C(=O)OCCCC)c1c26)c53)C(=O)N(c1c(C(C)C)cccc1C(C)C)C4=O
stdout: 0.89

stdin: Identify measured photoluminescence quantum yield corresponding to Fc1c(F)c(-n2c3ccccc3c3ccccc32)c(F)c(F)c1-c1nnc(-c2ccccc2)o1
stdout: 0.27

stdin: Identify measured photoluminescence quantum yield corresponding to O=C1NC(=O)C(c2c[nH]c3ccccc23)=C1c1c[nH]c2ccccc12
stdout: 0.28

stdin: Identify measured photoluminescence quantum yield corresponding to CCCCCCCCCCCCn1cccc1/C=C/c1ccc(/C=C/c2cccn2CCCCCCCCCCCC)cc1
stdout: 0.32

stdin: Identify measured photoluminescence quantum yield corresponding to c1ccc(-c2nc(-c3ccccc3)c(-c3ccccc3)o2)cc1
stdout: 0.36

stdin: Identify measured photoluminescence quantum yield corresponding to CC(=O)O[B-]1(OC(C)=O)OC(/C=C/c2cccc3ccccc23)=CC(/C=C/c2cccc3ccccc23)=[O+]1
stdout: 0.84

###

Recorded photoluminescence quantum yield for the following compounds
# run.description: photoluminescence quantum yield (fraction); solvent given as SMILES
# reported.conditions: in ClCCl
I only need the number, thanks.

Take a look at these entries with their results.
{"query.smiles": "COc1c2ccccc2c(OC)c2c1c1ccccc1n2C", "photoluminescence quantum yield": 0.41}
{"query.smiles": "CC(C)(C)c1ccc(-c2c3c(c(-c4ccccc4)c4cc5ccccc5cc24)Cc2c(c(-c4ccccc4)c4cc5ccccc5cc4c2-c2ccc(C(C)(C)C)cc2)C3)cc1", "photoluminescence quantum yield": 0.16}

stdin: Identify measured photoluminescence quantum yield corresponding to C(=C\c1cc(/C=C/c2ccc(-n3c4ccccc4c4ccccc43)cc2)cc(/C=C/c2ccc(-n3c4ccccc4c4ccccc43)cc2)c1)/c1ccc(-n2c3ccccc3c3ccccc32)cc1
stdout: 0.75

stdin: Identify measured photoluminescence quantum yield corresponding to COC(=O)c1cc(=O)n(C)c2cc(-c3ccc4c(c3)OCCO4)sc12
stdout: 0.83
